PROTOCOL DESCRIPTION: physchem
Description: Ionization constant (pKa)
Recorded pKa for the following compounds

Past entries and their recorded results:
CHEMICAL STRING: O=[N+]([O-])c1ccc(CCOCCCSCCNCCc2ccc(O)c3nc(O)sc23)cc1
pKa: > 8
//
CHEMICAL STRING: CN(CCc1ccc(O)c2[nH]c(=O)sc12)CCN(C)C(=O)CCOCCc1ccccc1
pKa: > 8

Summary for this compound, "CN(CCCNCCc1ccc(O)c2nc(O)sc12)S(=O)(=O)CCOCCc1ccccc1" : pKa is > 8

Summary for this compound, "O=S(=O)(CCCOCCc1ccc(O)cc1)CCNCCc1ccc(O)c2nc(O)sc12" : pKa is < 8

Summary for this compound, "O=S(=O)(CCCOCCc1ccc(Br)cc1)CCNCCc1ccc(O)c2nc(O)sc12" : pKa is > 8

Summary for this compound, "COc1ccc(CCOCCCS(=O)(=O)CCNCCc2ccc(O)c3nc(O)sc23)cc1" : pKa is < 8

Summary for this compound, "Oc1nc2c(O)ccc(CCNCCSCCCOCCc3ccccc3)c2s1" : pKa is > 8

Summary for this compound, "O=S(=O)(CCOCCc1ccccc1)NCCNCCc1ccc(O)c2nc(O)sc12" : pKa is > 8

Summary for this compound, "CS(=O)(=O)Nc1ccc(CCOCCCS(=O)(=O)CCNCCc2ccc(O)c3nc(O)sc23)cc1" : pKa is < 8

Summary for this compound, "O=C(CCCCCNCCc1ccc(O)c2nc(O)sc12)NCCc1ccccc1" : pKa is > 8
